Experiment: NCI Yeast Anticancer Drug Screen. Data for the mlh1 strain (AID 171)
Details: S. cerevisiae mlh1 strain growth inhibition; at 1.2 µM
The panel holds about 79,000 compounds, 15% with a hit somewhere; the sample as a whole holds those more often. The source made the active and inactive calls. Cut-off read from the data, not from the text of the source: active = growth inhibition above about 70%; inactive = the rest.
Give your call using only these classes: active, inactive

Illustrative cases are given below, each with its answer.
[[record]]
compound = "O=C1C(=O)c2cccc([N+](=O)[O-])c2-c2ccccc21"
label_value = "inactive"

[[record]]
compound = "CCN(CC)CCNc1ccc2nc(C)n3c4ccc(OC)cc4c(=O)c1c23"
label_value = "inactive"


**Q:** Test call, this compound: Clc1ccc(/C(=C\c2ccccc2)Cn2ccnc2)cc1
**A:** inactive

**Q:** Try the compound Cc1c2cc[n+](CCO)cc2c(C)c2c1[nH]c1ccc(O)cc12
**A:** inactive

**Q:** Try the compound CC1=CN2C(c3ccccc3)=NON(c3ccc(C)cn3)C2C=C1 (stereo not given)
**A:** inactive

**Q:** Try the compound CCN(CC)CCCNc1ccc([N+](=O)[O-])c2nc3ccc(OC)cc3c(NCCCN(CC)CC)c12
**A:** inactive

**Q:** Try the compound S=C(NCc1ccccn1)N/N=C/c1ccccn1
**A:** active
